For each record, write down the corresponding melting point.
API: value field is a number in °C; no unit string.

Documented melting point of `CCCOc1ccc(C(=O)O)cc1` : 145

Documented melting point of OCC(O)C(O)C(OC1OC(CO)C(O)C(O)C1O)C(O)CO (configuration not stated) : 151

Documented melting point of `C1=CCNCC1` : -48

====

For each record, write down the corresponding melting point.
API: value field is a number in °C; no unit string.

Documented melting point of `CC(C)(C)c1cc(C(C)(C)C)c2oc3c(C(C)(C)C)cc(C(C)(C)C)c(=O)c-3nc2c1` : 210

Documented melting point of CC12CCC(C(=CC(=O)NC(N)=O)C1=O)C2(C)C (configuration not stated) : 206

Documented melting point of `C#CCCCCCCCCCC` : -19

Documented melting point of `Oc1cncc(F)c1` : 163

Documented melting point of `CC(=O)c1cc(C)ccc1C` : -18.1

Documented melting point of `O=C1CC=CCC(=O)CC=CC1` : 184

Documented melting point of `O=C(NC(=S)Nc1ccc(Cl)cc1)c1ccc(-c2ccccc2)cc1` : 165

Documented melting point of `CCCCCCCCc1ccccc1` : -36
